- Experimental System: 5-HT3AB receptors (Homo sapiens)
- Construct: expressed in transfected cells; host or cells: HEK293
- Sequence (P46098 24-478): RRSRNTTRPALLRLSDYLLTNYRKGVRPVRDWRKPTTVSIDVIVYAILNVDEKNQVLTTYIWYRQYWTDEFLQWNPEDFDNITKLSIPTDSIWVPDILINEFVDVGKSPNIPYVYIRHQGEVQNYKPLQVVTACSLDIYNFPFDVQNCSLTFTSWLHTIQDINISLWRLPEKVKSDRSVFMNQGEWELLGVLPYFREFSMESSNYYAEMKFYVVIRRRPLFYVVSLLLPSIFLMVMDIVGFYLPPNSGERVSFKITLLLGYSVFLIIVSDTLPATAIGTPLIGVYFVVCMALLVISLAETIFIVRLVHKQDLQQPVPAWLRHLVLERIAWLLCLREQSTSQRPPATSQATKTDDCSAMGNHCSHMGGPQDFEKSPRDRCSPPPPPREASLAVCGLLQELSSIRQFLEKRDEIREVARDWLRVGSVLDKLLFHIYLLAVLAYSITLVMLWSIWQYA
- Sequence (O95264 22-441 partner): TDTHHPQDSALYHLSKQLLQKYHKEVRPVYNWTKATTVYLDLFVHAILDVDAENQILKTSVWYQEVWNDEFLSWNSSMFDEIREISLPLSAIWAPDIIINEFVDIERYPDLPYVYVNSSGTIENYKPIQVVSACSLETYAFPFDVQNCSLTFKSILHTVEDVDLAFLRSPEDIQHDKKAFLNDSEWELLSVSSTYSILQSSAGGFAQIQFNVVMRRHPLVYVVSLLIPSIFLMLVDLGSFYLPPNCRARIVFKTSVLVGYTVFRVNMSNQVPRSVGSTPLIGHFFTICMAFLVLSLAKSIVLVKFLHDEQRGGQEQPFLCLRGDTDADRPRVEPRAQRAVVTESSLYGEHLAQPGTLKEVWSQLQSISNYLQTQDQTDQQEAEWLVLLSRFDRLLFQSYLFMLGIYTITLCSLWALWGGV
- Protocol Details: Flexstation membrane potential dye assay, inhibition of 5-HT-induced responses
- Format: cell-based
- Experimental Setup: palonosetron preincubated 45 min before 5-HT; HEK293 cells; read-out: IC50
Parameter: IC50 (nM)
Write down the numeric answer in nM and omit the unit.

Request: I am curious: what IC50 value has been reported for O=C1c2cccc3c2[C@H](CCC3)CN1[C@@H]1CN2CCC1CC2 [Palonosetron, palonosetron] ?
Response: 0.18
